Kindly supply the reported Activity values for the records listed here.
System: Neutrophil
Experiment: Immunomodulatory activity in human neutrophils assessed as increase in intracellular killing activity at 100 ug/mL after 20 mins by NBT dye reduction assay relative to control
Format: functional
Parameters: scale not given: the % may be the effect or the level left
Expressed in %, but write only the number.

Any idea what Activity was measured for CCC(CO)NCP1(=O)OCC(OCn2cnc3c(=O)[nH]c(N)nc32)CO1 (stereo not drawn) ?
53.98

Any idea what Activity was measured for CCOC(=O)C(NCP1(=O)OCC(OCn2cnc3c(=O)[nH]c(N)nc32)CO1)c1ccc(O)cc1 (stereo not drawn) ?
52.31

Any idea what Activity was measured for Nc1nc2c(ncn2COC2COP(=O)(COCCO)OC2)c(=O)[nH]1 (stereo not drawn) ?
51.23

Any idea what Activity was measured for NCCNCP1(=O)OCC(OCn2cnc3c(=O)[nH]c(N)nc32)CO1 (stereo not drawn) ?
47.3

Any idea what Activity was measured for CCOC(=O)C(NCP1(=O)OCC(OCn2cnc3c(=O)[nH]c(N)nc32)CO1)c1ccccc1 (stereo not drawn) ?
52.91

Any idea what Activity was measured for Nc1nc2c(ncn2COC2COP(=O)(CSCCO)OC2)c(=O)[nH]1 (stereo not drawn) ?
52.15

Any idea what Activity was measured for COC(=O)C(NCP1(=O)OCC(OCn2cnc3c(=O)[nH]c(N)nc32)CO1)C(C)C (stereo not drawn) ?
62.45

Any idea what Activity was measured for CCOC(=O)C(CC(C)C)NCP1(=O)OCC(OCn2cnc3c(=O)[nH]c(N)nc32)CO1 (stereo not drawn) ?
51.44

Any idea what Activity was measured for "Nc1nc2c(ncn2COC(CO)CO)c(=O)[nH]1" ?
58.23

Any idea what Activity was measured for Nc1nc2c(ncn2COC2COP(=O)(CNCCO)OC2)c(=O)[nH]1 (stereo not drawn) ?
50.57

Any idea what Activity was measured for NCCSCP1(=O)OCC(OCn2cnc3c(=O)[nH]c(N)nc32)CO1 (stereo not drawn) ?
50.36

Any idea what Activity was measured for CCOC(=O)C(CO)NCP1(=O)OCC(OCn2cnc3c(=O)[nH]c(N)nc32)CO1 (stereo not drawn) ?
53.09

Any idea what Activity was measured for CCOC(=O)C(N)CSCP1(=O)OCC(OCn2cnc3c(=O)[nH]c(N)nc32)CO1 (stereo not drawn) ?
60.16

----------
Kindly supply the reported Activity values for the records listed here.
Test system: Neutrophil
Experiment: Immunomodulatory activity in human neutrophils assessed as increase in intracellular killing activity at 1000 ug/mL after 20 mins by NBT dye reduction assay relative to control
Type: functional
Design: scale not given: the % may be the effect or the level left
Expressed in %, but write only the number.

Any idea what Activity was measured for CCOC(=O)C(CC(C)C)NCP1(=O)OCC(OCn2cnc3c(=O)[nH]c(N)nc32)CO1 (stereo not drawn) ?
58.03

Any idea what Activity was measured for Nc1nc2c(ncn2COC2COP(=O)(COCCO)OC2)c(=O)[nH]1 (stereo not drawn) ?
53.02

Any idea what Activity was measured for COC(=O)C(NCP1(=O)OCC(OCn2cnc3c(=O)[nH]c(N)nc32)CO1)C(C)C (stereo not drawn) ?
65.14

Any idea what Activity was measured for Nc1nc2c(ncn2COC2COP(=O)(CNCCO)OC2)c(=O)[nH]1 (stereo not drawn) ?
55.25

Any idea what Activity was measured for CCOC(=O)C(CO)NCP1(=O)OCC(OCn2cnc3c(=O)[nH]c(N)nc32)CO1 (stereo not drawn) ?
56.02

Any idea what Activity was measured for NCCSCP1(=O)OCC(OCn2cnc3c(=O)[nH]c(N)nc32)CO1 (stereo not drawn) ?
57.91

Any idea what Activity was measured for CCC(CO)NCP1(=O)OCC(OCn2cnc3c(=O)[nH]c(N)nc32)CO1 (stereo not drawn) ?
54.32

Any idea what Activity was measured for "Nc1nc2c(ncn2COC(CO)CO)c(=O)[nH]1" ?
60.11

Any idea what Activity was measured for CCOC(=O)C(NCP1(=O)OCC(OCn2cnc3c(=O)[nH]c(N)nc32)CO1)c1ccccc1 (stereo not drawn) ?
60.32

Any idea what Activity was measured for CCOC(=O)C(NCP1(=O)OCC(OCn2cnc3c(=O)[nH]c(N)nc32)CO1)c1ccc(O)cc1 (stereo not drawn) ?
62.25

Any idea what Activity was measured for NCCNCP1(=O)OCC(OCn2cnc3c(=O)[nH]c(N)nc32)CO1 (stereo not drawn) ?
50.46

Any idea what Activity was measured for CCOC(=O)C(N)CSCP1(=O)OCC(OCn2cnc3c(=O)[nH]c(N)nc32)CO1 (stereo not drawn) ?
66.82

Any idea what Activity was measured for Nc1nc2c(ncn2COC2COP(=O)(CSCCO)OC2)c(=O)[nH]1 (stereo not drawn) ?
55.35

----------
Test system: Rattus norvegicus
Assay: Immunomodulatory activity in high fat diet-induced obese Wistar albino rat impaired immune model assessed as IL-1 level at 8 mg/kg, po after 8 weeks by ELISA relative to relative to high fat-diet fed rat with immune dysfunction
Assay type: functional
Calls of active or inactive are those of the source. The rule behind the calls is not given here.
MEASURED_QUANTITY: Activity

Nc1nc2c(ncn2COC2COP(=O)(CSCCO)OC2)c(=O)[nH]1 (stereo not given)    inactive
NCCNCP1(=O)OCC(OCn2cnc3c(=O)[nH]c(N)nc32)CO1 (stereo not given)    inactive
CCC(CO)NCP1(=O)OCC(OCn2cnc3c(=O)[nH]c(N)nc32)CO1 (stereo not given)    inactive
Nc1nc2c(ncn2COC2COP(=O)(CNCCO)OC2)c(=O)[nH]1 (stereo not given)    inactive

Please look at the following molecule next.
Any idea what Activity was measured for CCOC(=O)C(N)CSCP1(=O)OCC(OCn2cnc3c(=O)[nH]c(N)nc32)CO1 (stereo not given) ?
122.9 pg/mL

----------
System: Rattus norvegicus
Assay: Immunomodulatory activity in high fat diet-induced obese Wistar albino rat impaired immune model assessed as IL-6 level at 8 mg/kg, po after 8 weeks by ELISA relative to vehicle-treated control
Format: functional
Active and inactive are the calls of the source. The calls are words filed in the database; no cut-off is given here.
MEASURED_QUANTITY: Activity

Please review the following examples before continuing.
Nc1nc2c(ncn2COC2COP(=O)(CNCCO)OC2)c(=O)[nH]1 (stereo not drawn)    inactive
CCOC(=O)C(N)CSCP1(=O)OCC(OCn2cnc3c(=O)[nH]c(N)nc32)CO1 (stereo not drawn)    5.2 pg/mL
NCCNCP1(=O)OCC(OCn2cnc3c(=O)[nH]c(N)nc32)CO1 (stereo not drawn)    inactive
Nc1nc2c(ncn2COC2COP(=O)(COCCO)OC2)c(=O)[nH]1 (stereo not drawn)    inactive
NCCSCP1(=O)OCC(OCn2cnc3c(=O)[nH]c(N)nc32)CO1 (stereo not drawn)    inactive

Any idea what Activity was measured for Nc1nc2c(ncn2COC2COP(=O)(CSCCO)OC2)c(=O)[nH]1 (stereo not drawn) ?
inactive

Any idea what Activity was measured for CCC(CO)NCP1(=O)OCC(OCn2cnc3c(=O)[nH]c(N)nc32)CO1 (stereo not drawn) ?
inactive

Any idea what Activity was measured for COC(=O)C(NCP1(=O)OCC(OCn2cnc3c(=O)[nH]c(N)nc32)CO1)C(C)C (stereo not drawn) ?
5.4 pg/mL

----------
Tested on: Rattus norvegicus
Experiment: Immunomodulatory activity in high fat diet-induced obese Wistar albino rat impaired immune model assessed as IL-1 level at 8 mg/kg, po after 8 weeks by ELISA relative to relative to high fat-diet fed rat with immune dysfunction
Type: functional
The source made the active and inactive calls. No cut-off for these calls is given here.
MEASURED_QUANTITY: Activity

Nc1nc2c(ncn2COC2COP(=O)(COCCO)OC2)c(=O)[nH]1 (stereo not drawn)    inactive
NCCSCP1(=O)OCC(OCn2cnc3c(=O)[nH]c(N)nc32)CO1 (stereo not drawn)    inactive
COC(=O)C(NCP1(=O)OCC(OCn2cnc3c(=O)[nH]c(N)nc32)CO1)C(C)C (stereo not drawn)    123.6 pg/mL

----------
System: Rattus norvegicus
Assay: Immunomodulatory activity in high fat diet-induced obese Wistar albino rat impaired immune model assessed as CRP level at 8 mg/kg, po after 8 weeks by ELISA relative to high fat-diet fed rat with immune dysfunction
Format: functional
Active and inactive are the calls of the source. No cut-off for these calls is given here.
MEASURED_QUANTITY: Activity

Please review the following examples before continuing.
COC(=O)C(NCP1(=O)OCC(OCn2cnc3c(=O)[nH]c(N)nc32)CO1)C(C)C (configuration not stated)    22.3 ng/mL
CCOC(=O)C(CC(C)C)NCP1(=O)OCC(OCn2cnc3c(=O)[nH]c(N)nc32)CO1 (configuration not stated)    inactive
CCOC(=O)C(N)CSCP1(=O)OCC(OCn2cnc3c(=O)[nH]c(N)nc32)CO1 (configuration not stated)    21.9 ng/mL
CCOC(=O)C(NCP1(=O)OCC(OCn2cnc3c(=O)[nH]c(N)nc32)CO1)c1ccccc1 (configuration not stated)    inactive
Nc1nc2c(ncn2COC2COP(=O)(CSCCO)OC2)c(=O)[nH]1 (configuration not stated)    inactive

Any idea what Activity was measured for Nc1nc2c(ncn2COC2COP(=O)(COCCO)OC2)c(=O)[nH]1 (configuration not stated) ?
inactive

Any idea what Activity was measured for CCC(CO)NCP1(=O)OCC(OCn2cnc3c(=O)[nH]c(N)nc32)CO1 (configuration not stated) ?
inactive
